# Tested on: NSO
# protocol_notes: Growth inhibition of MCSF-independent mouse NSO cells
// IC50 lookup, one value per entry

# count of solved cases: 4
smiles_str	target_of_assay	IC50
COc1ccc(Nc2c(C(N)=O)cnc3cc(-c4ccncc4)ccc23)cc1Cl	NSO	> 50 µM
Cc1cc(Nc2c(C(N)=O)cnc3cc(-c4ccncc4)ccc23)ccc1F	NSO	> 50 µM
Cc1ccc(Nc2c(C(N)=O)cnc3cc(-c4ccncc4)ccc23)cc1F	NSO	> 20 µM
NC(=O)c1cnc2cc(-c3ccncc3)ccc2c1Nc1n[nH]c2ccccc12	NSO	> 50 µM

Please turn your attention to the following entry.
## Task Sample "CS(=O)(=O)Cc1cccc(-c2ccc3c(Nc4ccccc4)c(C(N)=O)cnc3c2)c1" — what was its IC50?
## Result > 20 µM
